Entry source: patent US20220402985A1

Quick list: Schwann cells (SC) (ErbB3) Avg EC50 per entry.
# Tested Target: ErbB3 on rat Schwann cells (rat) (UniProt Q62799)
# Sequence (Q62799 20-1339): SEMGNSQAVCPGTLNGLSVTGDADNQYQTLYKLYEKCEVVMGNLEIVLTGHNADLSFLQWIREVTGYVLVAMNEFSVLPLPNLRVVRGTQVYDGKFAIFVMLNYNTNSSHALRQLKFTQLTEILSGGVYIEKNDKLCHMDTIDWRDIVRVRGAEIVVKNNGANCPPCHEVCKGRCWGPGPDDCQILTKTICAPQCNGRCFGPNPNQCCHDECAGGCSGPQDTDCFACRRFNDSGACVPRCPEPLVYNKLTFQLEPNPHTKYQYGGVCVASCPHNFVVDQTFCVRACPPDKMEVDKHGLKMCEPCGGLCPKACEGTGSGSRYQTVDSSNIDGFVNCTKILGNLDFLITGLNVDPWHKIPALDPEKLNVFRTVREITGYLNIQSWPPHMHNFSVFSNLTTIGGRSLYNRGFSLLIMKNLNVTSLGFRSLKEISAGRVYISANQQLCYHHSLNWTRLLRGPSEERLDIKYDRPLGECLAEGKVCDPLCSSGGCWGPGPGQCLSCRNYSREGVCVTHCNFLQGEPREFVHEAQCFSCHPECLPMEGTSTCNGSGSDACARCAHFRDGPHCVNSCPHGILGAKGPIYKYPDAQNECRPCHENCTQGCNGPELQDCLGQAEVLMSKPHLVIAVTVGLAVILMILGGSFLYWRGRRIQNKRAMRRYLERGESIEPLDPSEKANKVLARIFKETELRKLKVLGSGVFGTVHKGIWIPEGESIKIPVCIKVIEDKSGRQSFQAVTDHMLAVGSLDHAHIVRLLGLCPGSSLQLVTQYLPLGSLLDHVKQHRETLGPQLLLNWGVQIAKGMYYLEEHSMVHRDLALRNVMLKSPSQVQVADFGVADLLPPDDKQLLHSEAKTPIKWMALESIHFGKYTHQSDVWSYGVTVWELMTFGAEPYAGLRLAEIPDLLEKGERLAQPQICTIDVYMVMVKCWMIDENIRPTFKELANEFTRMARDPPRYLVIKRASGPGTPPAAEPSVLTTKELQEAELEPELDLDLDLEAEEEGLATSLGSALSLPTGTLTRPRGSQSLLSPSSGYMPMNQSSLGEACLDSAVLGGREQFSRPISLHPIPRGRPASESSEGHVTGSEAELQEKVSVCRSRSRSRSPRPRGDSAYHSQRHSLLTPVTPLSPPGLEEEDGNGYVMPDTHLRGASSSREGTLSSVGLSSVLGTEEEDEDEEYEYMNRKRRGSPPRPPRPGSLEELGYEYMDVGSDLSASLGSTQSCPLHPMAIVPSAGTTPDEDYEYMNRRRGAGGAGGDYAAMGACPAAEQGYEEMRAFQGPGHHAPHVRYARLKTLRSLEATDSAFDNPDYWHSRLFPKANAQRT
# Protocol Description: cell-based or functional assay

Binder	Readout Qualifier	Schwann cells (SC) (ErbB3) Avg EC50 / nM
huNRG1(S177-Q237)(NRGE1K)::GG::huFcSEFL2 (Pb) (Fc fusion) SHLVKCAEKHKSFCVNGGECFMIEGPSNPSRYLCKCPNEFTGDRCQDDFMASFYKAEELYQGGDKTHTCPPCPAPELLGGPSVFLFPPKPKDTLMISRTPEVTCVVVDVSHEDPEVKFNWYVDGVEVHNAKTKPCEEQYGSTYRCVSVLTVLHQDWLNGKEYKCKVSNKALPAPIEKTISKAKGQPREPQVYTLPPSREEMTKNQVSLTCLVKGFYPSDIAVEWESNGQPENNYKTTPPVLDSDGSFFLYSKLTVDKSRWQQGNVFSCSVMHEALHNHYTQKSLSLSPGK	>	10000
huNRG1(S177-Q237)(1A1)::GG::huFcSEFL2 (Pb) (Fc fusion) SHLVKCGESEKSFCVNGGECYVIEDSSIPSRFLCKCPNEFTGDRCQNVFLASFYKAEELYQGGDKTHTCPPCPAPELLGGPSVFLFPPKPKDTLMISRTPEVTCVVVDVSHEDPEVKFNWYVDGVEVHNAKTKPCEEQYGSTYRCVSVLTVLHQDWLNGKEYKCKVSNKALPAPIEKTISKAKGQPREPQVYTLPPSREEMTKNQVSLTCLVKGFYPSDIAVEWESNGQPENNYKTTPPVLDSDGSFFLYSKLTVDKSRWQQGNVFSCSVMHEALHNHYTQKSLSLSPGK	=	9.11
huNRG1(S177-F229)(NRGE1D) (E47T_D48S_F49L_M50L) 6xHis (ligand) SHLVKCGESHKSFCVNGGECYMVEGSSIPSRYLCKCPNEFTGDRCQTSLLASFGGGGEGGGGAGGGGHHHHHH	=	10000
huNRG1(S177-Q237)(2E4)::GG::huFcSEFL2 (Pb) (Fc fusion) SHLVKCGESDKSFCVNGGECFMVKRPSNPSRYLCKCPNEFTGDRCQKVFLASFYKAEELYQGGDKTHTCPPCPAPELLGGPSVFLFPPKPKDTLMISRTPEVTCVVVDVSHEDPEVKFNWYVDGVEVHNAKTKPCEEQYGSTYRCVSVLTVLHQDWLNGKEYKCKVSNKALPAPIEKTISKAKGQPREPQVYTLPPSREEMTKNQVSLTCLVKGFYPSDIAVEWESNGQPENNYKTTPPVLDSDGSFFLYSKLTVDKSRWQQGNVFSCSVMHEALHNHYTQKSLSLSPGK	=	61.5
huNRG1(S177-Q237)(v80)::GG::huFcSEFL2 (Pb) (Fc fusion) SHLVKCAESHKSFCVNGGECFVIEGSSIPSRYLCKCPNEFTGDRCQKDVMASFYKAEELYQGGDKTHTCPPCPAPELLGGPSVFLFPPKPKDTLMISRTPEVTCVVVDVSHEDPEVKFNWYVDGVEVHNAKTKPCEEQYGSTYRCVSVLTVLHQDWLNGKEYKCKVSNKALPAPIEKTISKAKGQPREPQVYTLPPSREEMTKNQVSLTCLVKGFYPSDIAVEWESNGQPENNYKTTPPVLDSDGSFFLYSKLTVDKSRWQQGNVFSCSVMHEALHNHYTQKSLSLSPGK	=	6.65
huNRG1(S177-Q237)(1C11)::GG::huFcSEFL2 (Pb) (Fc fusion) SHLVKCGEKEKTFCVNGGECYMVERPSIPSRFLCKCPNEFTGDRCQKFFMASFYKAEELYQGGDKTHTCPPCPAPELLGGPSVFLFPPKPKDTLMISRTPEVTCVVVDVSHEDPEVKFNWYVDGVEVHNAKTKPCEEQYGSTYRCVSVLTVLHQDWLNGKEYKCKVSNKALPAPIEKTISKAKGQPREPQVYTLPPSREEMTKNQVSLTCLVKGFYPSDIAVEWESNGQPENNYKTTPPVLDSDGSFFLYSKLTVDKSRWQQGNVFSCSVMHEALHNHYTQKSLSLSPGK	=	87
huNRG1(S177-Q237)(3D8)::GG::huFcSEFL2 (Pb) (Fc fusion) SHLVKCGEKDKTFCVNGGECFMVEDLSIPSRFLCKCPNEFTGDRCQDFFMASFYKAEELYQGGDKTHTCPPCPAPELLGGPSVFLFPPKPKDTLMISRTPEVTCVVVDVSHEDPEVKFNWYVDGVEVHNAKTKPCEEQYGSTYRCVSVLTVLHQDWLNGKEYKCKVSNKALPAPIEKTISKAKGQPREPQVYTLPPSREEMTKNQVSLTCLVKGFYPSDIAVEWESNGQPENNYKTTPPVLDSDGSFFLYSKLTVDKSRWQQGNVFSCSVMHEALHNHYTQKSLSLSPGK	>	3000
huNRG1(S177-Q237)(NRGE1J)::GG::huFcSEFL2 (Pb) (Fc fusion) SHLVKCGENDKSFCVNGGECYMVEGSSIPSRYLCKCPNEFTGDRCQDDFMASFYKAEELYQGGDKTHTCPPCPAPELLGGPSVFLFPPKPKDTLMISRTPEVTCVVVDVSHEDPEVKFNWYVDGVEVHNAKTKPCEEQYGSTYRCVSVLTVLHQDWLNGKEYKCKVSNKALPAPIEKTISKAKGQPREPQVYTLPPSREEMTKNQVSLTCLVKGFYPSDIAVEWESNGQPENNYKTTPPVLDSDGSFFLYSKLTVDKSRWQQGNVFSCSVMHEALHNHYTQKSLSLSPGK	>	10000
huNRG1(S177-F229)(NRGE1D) (E47S_D48S_F49E_M50L) 6xHis (ligand) SHLVKCGESHKSFCVNGGECYMVEGSSIPSRYLCKCPNEFTGDRCQSSELASFGGGGEGGGGAGGGGHHHHHH	=	10000
huNRG1(S177-F229)(NRGE1C) (E47K_D48T_F49S_M50L) 6xHis (ligand) SHLVKCGEKHKSFCVNGGECFMIEGPSNPSRYLCKCPNEFTGDRCQKTSLASFGGGGEGGGGAGGGGHHHHHH	=	10000
